target-under-test: T1, dimeric human LTBR-Fc biotinylated (P1AE2401) (human, UniProt P36941 31-227, biotinylated in vitro)
T1 construct: bought from R&D Systems (7538-LR); also called human LTBR ECD; not shown: human IgG1 Fc-Fragment
procedure-text: competition ELISA vs human LIGHT
reported-metric: IC50 (nM)

- binder: "P1AF0079 (antibody, human IgG1, kappa, L234A L235A, V domains shown, human IgG1 PG LALA; from transgenic rabbit immunization; also called LTBR (0079)) VH: EVQLLESGGALVQPGGSLRLSCAASGFTFSSYAMSWVRQAPGKGLEWVSVITGSSSSIDYADSVKGRFTISRDNSKNTLYLQMNSLRAEDTAVYYCAKGGSGVWSISTDFDYWGQGTLVTVSS VL: DIQMTQSPSFLSASVGDRVTITCQASQDISNYLNWYQQKPGKAPKHLIYAASSLHSGVPSRFSGSGSGAYFTLTITSLQPEDFATYYCQQSHSTPPTFGPGTKVDIKR"
  test-value: 1.61

The reported numbers originate from patent US20250034269A1.
